target: Adenosine receptor A2a (Homo sapiens, UniProt P29274); assay: Displacement of [3H]ZM241385 from human recombinant A2A receptor expressed in human HeLa cell membranes at 1 uM incubated for 30 mins by radioligand binding competition assay relative to control
Sequence (P29274 whole entry): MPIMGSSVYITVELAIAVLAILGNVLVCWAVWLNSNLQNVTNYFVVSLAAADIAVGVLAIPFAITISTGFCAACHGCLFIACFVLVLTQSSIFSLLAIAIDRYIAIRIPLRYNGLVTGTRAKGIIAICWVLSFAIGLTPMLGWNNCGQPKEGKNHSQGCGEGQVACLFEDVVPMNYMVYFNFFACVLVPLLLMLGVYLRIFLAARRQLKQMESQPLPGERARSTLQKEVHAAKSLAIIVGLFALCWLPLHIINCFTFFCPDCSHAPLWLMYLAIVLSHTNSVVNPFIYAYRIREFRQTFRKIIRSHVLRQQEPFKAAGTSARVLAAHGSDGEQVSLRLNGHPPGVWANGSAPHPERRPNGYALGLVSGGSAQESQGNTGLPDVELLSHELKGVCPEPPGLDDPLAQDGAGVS
Classification field: enter 1 (yes) for inhibition values not below 2%, 0 (no) for values below it.

For this compound, is measured inhibition 2% or higher? CC1=C(C(=O)OC(C)C(F)(F)F)C(c2ccco2)n2c(nc3ccccc32)N1 (racemic)
1 (yes)

For this compound, is measured inhibition 2% or higher? CC1=C(C(=O)OC(C)C(F)(F)F)C(c2ccoc2)NC(=O)N1 (stereo in doubt; 14j-D2)
0 (no)

For this compound, is measured inhibition 2% or higher? CC1=C(C(=O)OC(C)C)C(c2cccs2)n2c(nc3ccccc32)N1 (centres undefined)
1 (yes)

For this compound, is measured inhibition 2% or higher? CC1=C(C(=O)OC(C)C(F)(F)F)C(c2ccoc2)NC(=O)N1 (stereo in doubt; 14j-D1)
0 (no)

For this compound, is measured inhibition 2% or higher? CC1=C(C(=O)O[C@@H](C)C(F)(F)F)[C@H](c2ccco2)n2c(nc3ccccc32)N1
1 (yes)

For this compound, is measured inhibition 2% or higher? CC1=C(C(=O)OC(C)C)C(c2ccoc2)n2c(nc3ccccc32)N1 (centres undefined)
1 (yes)

====

target: Adenosine receptor A2a (Homo sapiens); assay: Displacement of [3H]ZM241385 from human recombinant A2A receptor expressed in human HeLa cell membranes incubated for 30 mins by radioligand binding competition assay
attribute_measured: pKi
Please report pKi as the negative decimal logarithm of the molar concentration, giving only the number.

Fill blank: measured pKi of the compound CC1=C(C(=O)OC(C)C)C(c2ccco2)n2c(nc3ccccc32)N1 (stereo unspecified) is ____.
7.55

====

target: Adenosine receptor A3 (Homo sapiens); test: Displacement of [3H]NECA from human A3 receptor expressed in human HeLa cell membranes at 1 uM incubated for 180 mins by radioligand binding competition assay relative to control
For each record, write down the corresponding inhibition.

Fill blank: measured inhibition of the molecule CC1=C(C(=O)OC(C)C)C(c2ccsc2)n2c(nc3ccccc32)N1 (configuration not stated) is ____.
21%

Fill blank: measured inhibition of the molecule CC1=C(C(=O)OC(C(F)(F)F)C(F)(F)F)C(c2ccoc2)NC(=O)N1 (racemic) is ____.
1%

Fill blank: measured inhibition of the molecule CC1=C(C(=O)OC(C)C(F)(F)F)C(c2ccoc2)n2c(nc3ccccc32)N1 (racemic) is ____.
3%

Fill blank: measured inhibition of the molecule CCOC(=O)C1=C(C(F)(F)F)Nc2nc3ccccc3n2[C@@H]1c1ccoc1 is ____.
3%

Fill blank: measured inhibition of the molecule CCOC(=O)C1=C(C(F)(F)F)Nc2nc3ccccc3n2C1c1ccoc1 (racemic) is ____.
6%

Fill blank: measured inhibition of the molecule CC1=C(C(=O)OC(C(F)(F)F)C(F)(F)F)C(c2cccs2)NC(=O)N1 (racemic) is ____.
1%

Fill blank: measured inhibition of the molecule CC1=C(C(=O)OCC(F)(F)F)C(c2ccco2)NC(=O)N1 (racemic) is ____.
1%

Fill blank: measured inhibition of the molecule CC1=C(C(=O)OC(C(F)(F)F)C(F)(F)F)C(c2ccsc2)NC(=O)N1 (racemic) is ____.
8%

Fill blank: measured inhibition of the molecule CC(C)OC(=O)C1=C(C(F)(F)F)Nc2nc3ccccc3n2C1c1ccsc1 (racemic) is ____.
2%

Fill blank: measured inhibition of the molecule CC1=C(C(=O)OC(C(F)(F)F)C(F)(F)F)C(c2cccs2)n2c(nc3ccccc32)N1 (racemic) is ____.
19%

Fill blank: measured inhibition of the molecule CC1=C(C(=O)OC(C)C(F)(F)F)C(c2ccoc2)NC(=O)N1 (stereo in doubt; 14j-D2) is ____.
5%

Fill blank: measured inhibition of the molecule CCOC(=O)C1=C(C(F)(F)F)NC(=O)NC1c1cccs1 (racemic) is ____.
1%

Fill blank: measured inhibition of the molecule CC1=C(C(=O)O[C@@H](C)C(F)(F)F)[C@H](c2ccco2)n2c(nc3ccccc32)N1 is ____.
9%

Fill blank: measured inhibition of the molecule CC1=C(C(=O)OC(C)C(F)(F)F)C(c2cccs2)NC(=O)N1 (stereo in doubt; 14k-D2) is ____.
3%

Fill blank: measured inhibition of the molecule CC1=C(C(=O)OC(C(F)(F)F)C(F)(F)F)C(c2ccco2)NC(=O)N1 (racemic) is ____.
2%

Fill blank: measured inhibition of the molecule CC1=C(C(=O)OC(C)C(F)(F)F)C(c2ccco2)NC(=O)N1 (stereo in doubt; 14i-D2) is ____.
7%

Fill blank: measured inhibition of the molecule CC1=C(C(=O)OC(C)C)C(c2ccoc2)n2c(nc3ccccc32)N1 (configuration not stated) is ____.
2%

Fill blank: measured inhibition of the molecule CC1=C(C(=O)O[C@H](C)C(F)(F)F)C(c2ccco2)n2c(nc3ccccc32)N1 (mixture of isomers) is ____.
23%

Fill blank: measured inhibition of the molecule CC1=C(C(=O)OC(C)C(F)(F)F)C(c2cccs2)NC(=O)N1 (stereo in doubt; 14k-D1) is ____.
3%

Fill blank: measured inhibition of the molecule CCOC(=O)C1=C(C(F)(F)F)Nc2nc3ccccc3n2C1c1ccco1 (racemic) is ____.
20%

Fill blank: measured inhibition of the molecule CC1=C(C(=O)OC(C(F)(F)F)C(F)(F)F)C(c2ccsc2)n2c(nc3ccccc32)N1 (racemic) is ____.
1%

Fill blank: measured inhibition of the molecule CCOC(=O)C1=C(C(F)(F)F)Nc2nc3ccccc3n2C1c1ccsc1 (racemic) is ____.
29%

Fill blank: measured inhibition of the molecule CC1=C(C(=O)OCC(F)(F)F)[C@@H](c2ccco2)n2c(nc3ccccc32)N1 is ____.
7%

Fill blank: measured inhibition of the molecule CC(C)OC(=O)C1=C(C(F)(F)F)NC(=O)NC1c1ccsc1 (racemic) is ____.
3%

Fill blank: measured inhibition of the molecule CC1=C(C(=O)O[C@@H](C)C(F)(F)F)[C@@H](c2ccco2)n2c(nc3ccccc32)N1 is ____.
21%

Fill blank: measured inhibition of the molecule CC1=C(C(=O)OC(C)C(F)(F)F)C(c2ccco2)n2c(nc3ccccc32)N1 (racemic) is ____.
18%

Fill blank: measured inhibition of the molecule CC1=C(C(=O)O[C@H](C)C(F)(F)F)[C@@H](c2ccco2)n2c(nc3ccccc32)N1 is ____.
14%

Fill blank: measured inhibition of the molecule CCOC(=O)C1=C(C(F)(F)F)Nc2nc3ccccc3n2[C@H]1c1ccoc1 is ____.
3%

Fill blank: measured inhibition of the molecule CC(C)OC(=O)C1=C(C(F)(F)F)Nc2nc3ccccc3n2C1c1cccs1 (racemic) is ____.
1%

Fill blank: measured inhibition of the molecule CC1=C(C(=O)OC(C)C(F)(F)F)C(c2ccsc2)n2c(nc3ccccc32)N1 (racemic) is ____.
2%

Fill blank: measured inhibition of the molecule CC(C)OC(=O)C1=C(C(F)(F)F)NC(=O)NC1c1cccs1 (racemic) is ____.
7%

Fill blank: measured inhibition of the molecule CC1=C(C(=O)O[C@H](C)C(F)(F)F)[C@H](c2ccco2)n2c(nc3ccccc32)N1 is ____.
1%

Fill blank: measured inhibition of the molecule CC1=C(C(=O)OC(C(F)(F)F)C(F)(F)F)C(c2ccco2)n2c(nc3ccccc32)N1 (racemic) is ____.
24%

Fill blank: measured inhibition of the molecule CC(C)OC(=O)C1=C(C(F)(F)F)NC(=O)NC1c1ccoc1 (racemic) is ____.
1%

Fill blank: measured inhibition of the molecule CC1=C(C(=O)OC(C)C)C(c2ccco2)n2c(nc3ccccc32)N1 (configuration not stated) is ____.
2%

Fill blank: measured inhibition of the molecule CC1=C(C(=O)OCC(F)(F)F)C(c2cccs2)NC(=O)N1 (racemic) is ____.
1%

Fill blank: measured inhibition of the molecule CC1=C(C(=O)OCC(F)(F)F)C(c2ccco2)n2c(nc3ccccc32)N1 (racemic) is ____.
23%

====

For each record, write down the corresponding pKi.
molecular target: Adenosine receptor A2b (Homo sapiens); experiment: Displacement of [3H]DPCPX from human recombinant A2B receptor expressed in human HEK293 cell membranes incubated for 30 mins by radioligand binding competition assay
Sequence (P29275 whole entry): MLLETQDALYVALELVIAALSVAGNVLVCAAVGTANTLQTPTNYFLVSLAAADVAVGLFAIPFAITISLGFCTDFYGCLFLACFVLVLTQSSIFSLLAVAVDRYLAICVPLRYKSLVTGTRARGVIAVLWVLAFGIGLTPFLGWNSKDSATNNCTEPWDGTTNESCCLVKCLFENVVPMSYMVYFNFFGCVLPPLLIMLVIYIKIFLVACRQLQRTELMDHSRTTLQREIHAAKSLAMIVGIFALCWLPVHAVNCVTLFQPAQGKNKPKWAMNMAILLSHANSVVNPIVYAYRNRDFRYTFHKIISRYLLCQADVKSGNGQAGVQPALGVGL
Please report pKi as the negative decimal logarithm of the molar concentration, giving only the number.

Fill blank: measured pKi of the compound CC1=C(C(=O)OCC(F)(F)F)C(c2ccoc2)NC(=O)N1 (racemic) is ____.
6.23

Fill blank: measured pKi of the compound CC1=C(C(=O)OCC(F)(F)F)C(c2ccco2)n2c(nc3ccccc32)N1 (racemic) is ____.
7.57

Fill blank: measured pKi of the compound CC1=C(C(=O)OC(C)C(F)(F)F)C(c2ccsc2)NC(=O)N1 (stereo in doubt; 14l-D1) is ____.
6.19

Fill blank: measured pKi of the compound CCOC(=O)C1=C(C(F)(F)F)Nc2nc3ccccc3n2[C@@H]1c1ccoc1 is ____.
7.86

Fill blank: measured pKi of the compound CC(C)OC(=O)C1=C(C(F)(F)F)Nc2nc3ccccc3n2C1c1ccoc1 (racemic) is ____.
7.31
